Value source: the supplement of paper PMC9262897

# Tested on: E. coli TESEC Mtb Alr
# testSummary: growth (OD600 after 10 h); higher = more growth (less inhibition)
# particulars: arabinose 100000 nM; compound 0.1 mM; raw OD600 reference: median of DMSO wells 0.201, cell-free background 0.041
Counter-ions that a name gives are not always drawn.
Each entry below lists one item and its recorded growth value.
Field format: numeric only.

Example entries begin here.
- molecule: "Clc1ccc2c(c1)C(N1CCNCC1)=Nc1ccccc1O2"
  growth: 0.162
- molecule: "COc1cc2c(cc1OC)C(=O)C(CC1CCN(Cc3ccccc3)CC1)C2 (stereo unspecified) [Donepezil hydrochloride]"
  growth: 0.158
- molecule: "CCCCOC(=O)c1ccc(O)cc1"
  growth: 0.157
- molecule: "CCCNCC(O)COc1ccccc1C(=O)CCc1ccccc1 (stereo unspecified) [Propafenone hydrochloride]"
  growth: 0.176
- molecule: "CN1CCC(=C2c3ccccc3CCc3cccnc32)CC1 [Azatadine maleate]"
  growth: 0.178

Then there is this molecule:
Input: Param readout = growth; param system = E. coli TESEC Mtb Alr; param query = CCOC(=O)[C@H](CCc1ccccc1)N[C@H]1CCc2ccccc2N(CC(=O)O)C1=O [Benazepril HCl] ; response: value
Output: 0.253

* * *

# Test system: E. coli TESEC Mtb DapB
# testSummary: growth (OD600 after 10 h); higher = more growth (less inhibition)
# particulars: arabinose induction (level): Low; compound 0.1 mM; raw OD600 reference: median of DMSO wells 0.227, cell-free background 0.041
Structures can show the parent of a compound that is named as a salt.
Would you please tag the item fulfilled when its growth is 0.2 or above, and not fulfilled when it is below?

- compound: "CN(C)CCCN1c2ccccc2Sc2ccccc21 [Promazine hydrochloride]"
  labelClass: "fulfilled"
- compound: "CC(C)[C@H]1CC[C@H](C(=O)N[C@H](Cc2ccccc2)C(=O)O)CC1 [Nateglinide]"
  labelClass: "fulfilled"
- compound: "Nc1ccc(C(=O)NCC(=O)O)cc1"
  labelClass: "fulfilled"
- compound: "O=C(O)c1cn(C2CC2)c2cc(N3CCNCC3)c(F)cc2c1=O [Ciprofloxacin hydrochloride monohydrate]"
  labelClass: "not fulfilled"
- compound: "CC[N+](C)(CC)CCC[n+]1c(-c2ccccc2)c2cc(N)ccc2c2ccc(N)cc21 [Propidium iodide]"
  labelClass: "not fulfilled"

Input: Dear colleague, could you confirm whether CCN(CC)CCNC(C(=O)OCCC(C)C)c1ccccc1 (configuration not stated) [Camylofine chlorhydrate] has growth at or above 0.2?
Output: not fulfilled

Input: Note, next up: Cn1cnc([N+](=O)[O-])c1Sc1ncnc2[nH]cnc12
Output: fulfilled

Input: Now give it for CCN(CC)C(=O)/C(C#N)=C/c1cc(O)c(O)c([N+](=O)[O-])c1 too.
Output: not fulfilled

Input: Then this compound: Cc1c(Cl)cccc1Nc1ncccc1C(=O)O [Clonixin Lysinate]
Output: fulfilled

Input: Do the same for CN1CCN2c3ncccc3Cc3ccccc3C2C1 (configuration not stated) please
Output: fulfilled

* * *

# Tested on: E. coli TESEC Mtb Alr
# testSummary: growth (OD600 after 10 h); higher = more growth (less inhibition)
# particulars: arabinose 1000000 nM; compound 0.1 mM; raw OD600 reference: median of DMSO wells 0.193, cell-free background 0.041
Counter-ions that a name gives are not always drawn.
The following compounds are listed with their measured growth values.
Form rule: numeric answer, no unit written next to it.

- compound: "OCCOCCN1CCN(C(c2ccccc2)c2ccc(Cl)cc2)CC1 (stereo unspecified) [Hydroxyzine dihydrochloride]"
  testTarget: "E. coli TESEC Mtb Alr"
  measurementType: "growth"
  quantitativeReadout: 0.11
- compound: "CCC(=O)OCC(=O)[C@@]1(OC(=O)CC)[C@H](C)C[C@H]2[C@H]3[C@H]([C@@H](O)C[C@@]21C)[C@@]1(C)C=CC(=O)C=C1C[C@H]3Cl [Alclometasone dipropionate]"
  testTarget: "E. coli TESEC Mtb Alr"
  measurementType: "growth"
  quantitativeReadout: 0.127
- compound: "COc1ccccc1OCC(O)CO (stereo unspecified) [Guaifenesin]"
  testTarget: "E. coli TESEC Mtb Alr"
  measurementType: "growth"
  quantitativeReadout: 0.19
- compound: "O=C1OCCN1/N=C/c1ccc([N+](=O)[O-])o1 [Furazolidone]"
  testTarget: "E. coli TESEC Mtb Alr"
  measurementType: "growth"
  quantitativeReadout: 0.0399
- compound: "Nc1ccc(C(=O)NCC(=O)O)cc1 [Aminohippuric acid]"
  testTarget: "E. coli TESEC Mtb Alr"
  measurementType: "growth"
  quantitativeReadout: 0.189

Input: // query growth value for entry CN(N=O)C(=O)N[C@H]1C(O)O[C@H](CO)[C@@H](O)[C@@H]1O (mixture of isomers) [Streptozotocin]
Output: 0.14

Input: Same question, Fc1ccc([C@@H]2CCNC[C@H]2COc2ccc3c(c2)OCO3)cc1 [Paroxetine Hydrochloride] this time
Output: 0.0557

Input: Could you do the same for CC(C(O)c1ccc(O)cc1)N1CCC(Cc2ccccc2)CC1 (stereo unspecified) [Ifenprodil tartrate] , please?
Output: 0.143

Input: Try Cc1c(C)c2c(c(C)c1O)CCC(C)(C(=O)O)O2 (stereo unspecified) [Trolox] next.
Output: 0.178

Input: What would you report for C[C@]12CC[C@H]3[C@@H](CCC4=CC(=O)CC[C@@]43C)[C@@H]1CC[C@@H]2C(=O)CO [Deoxycorticosterone] ?
Output: 0.107

Input: Now give it for CCOC(=O)OC(C)OC(=O)[C@@H]1N2C(=O)[C@@H](NC(=O)[C@H](N)c3ccccc3)[C@H]2SC1(C)C (stereo partly specified) [Bacampicillin hydrochloride] too.
Output: 0.17
